molecular target: human STING protein in THP1-Blue ISG cells (Homo sapiens, UniProt Q86WV6, G230A/H232R/R293Q/R71H); assay: In vitro cytokine induction, THP1-Blue ISG IRF-inducible SEAP reporter assay; details: 24 hours incubation, OD at 620 nm
Sequence (Q86WV6 whole entry R71H/G230A/H232R/R293Q): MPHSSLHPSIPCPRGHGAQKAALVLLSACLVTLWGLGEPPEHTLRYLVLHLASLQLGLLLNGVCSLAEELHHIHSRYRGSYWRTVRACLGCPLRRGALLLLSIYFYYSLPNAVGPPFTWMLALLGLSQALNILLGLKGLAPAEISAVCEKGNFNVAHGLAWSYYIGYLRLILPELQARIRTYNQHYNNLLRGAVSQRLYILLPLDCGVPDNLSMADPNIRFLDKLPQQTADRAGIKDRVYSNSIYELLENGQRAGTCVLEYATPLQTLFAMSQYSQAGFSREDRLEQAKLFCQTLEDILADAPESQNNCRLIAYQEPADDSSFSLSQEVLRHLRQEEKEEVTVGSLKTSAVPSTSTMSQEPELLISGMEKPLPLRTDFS
Structures can show the parent of a compound that is named as a salt.
Quantity kind: EC50 (µM)
Response body: numeric value in µM, unit text excluded.

# EC50 of Nc1ncnc2c1ncn2[C@@H]1O[C@]23CO[C@@H]1[C@@H]2OP(=O)(S)OC[C@H]1O[C@@H](n2cnc4c(=O)[nH]ncc42)[C@H](OP(=O)(S)OC3)[C@@H]1O (single isomer, unassigned) [Example 3.2, Sodium Salt] = 8.5
